Tested on: Plasmodium falciparum
Assay: GSK_TCMDC: Inhibition of Plasmodium falciparum Dd2 in whole red blood cells, using parasite LDH activity as an index of growth. Test compounds present at 2uM
Type: functional
Inhibition vs 60%: less than gives label 1; not less than gives label 0.

Prompt: Below 60% on Inhibition? Entry `C=C[C@H]1CN2CC[C@H]1C[C@H]2[C@H](O)c1ccnc2ccc(OC)cc12.O.O=S(=O)(O)O`
Response: label 1

Prompt: Below 60% on Inhibition? Entry `CC(C)(CNCc1cc(Cl)cc(Cl)c1)c1nc(-c2ccnc(N)n2)c(-c2ccc(Cl)c(O)c2)[nH]1.Cl`
Response: label 1

Prompt: Below 60% on Inhibition? Entry `O=C(c1ccc(O)c(-c2cc(Cl)cc(Cl)c2)c1)N1CCCC1`
Response: label 1

Prompt: Below 60% on Inhibition? Entry COc1ccccc1NC(=O)OC(COc1ccc(N)cc1)CN1CC=C(c2ccccc2)CC1.O=C(O)C(F)(F)F (stereo not drawn)
Response: label 0

Prompt: Below 60% on Inhibition? Entry `CCCCn1c(Sc2ccc(C#N)c([N+](=O)[O-])c2)nnc1-c1cc(OC)cc(OC)c1`
Response: label 0

Prompt: Below 60% on Inhibition? Entry `O=C(Nc1ccc(-c2nc3ccccc3[nH]2)cc1)C1CCN(Cc2ccc(F)cc2)CC1`
Response: label 0

Prompt: Below 60% on Inhibition? Entry `COc1ccc2c(ccc3c2ncc2c(=O)n(-c4ccccc4)[nH]c23)c1`
Response: label 0

Prompt: Below 60% on Inhibition? Entry `O=C(NC1CCN(CCN2CCC(c3c[nH]c4ccccc34)CC2)CC1)c1ccc(-c2ccc(C(F)(F)F)cc2)cc1`
Response: label 0

Prompt: Below 60% on Inhibition? Entry COc1ccc(C(=C(C)CC(C)C(=O)O)c2ccccc2)cc1 (stereo not drawn)
Response: label 1

Prompt: Below 60% on Inhibition? Entry `Cc1ccc(F)c(OC2CCN(c3ccc(C(=O)NC4CC4)cn3)CC2)c1`
Response: label 0

Prompt: Below 60% on Inhibition? Entry `O=C(C=Cc1ccc(Cl)c(Cl)c1)NCCCCCN1CCC(c2n[nH]c3ccccc23)CC1`
Response: label 1

Prompt: Below 60% on Inhibition? Entry `COc1ccc(-c2cccc(NC(=O)c3ccc(C#N)cc3)c2)cc1CN1CCCN(C)CC1.O=C(O)C(F)(F)F`
Response: label 0

Prompt: Below 60% on Inhibition? Entry `Cc1cccc2nc(-c3ccc(-c4cccc(NC(=O)CN5CCN(C)CC5)c4)s3)[nH]c12`
Response: label 1

Prompt: Below 60% on Inhibition? Entry `O=C(Cc1cccnc1)Nc1cccc(-c2cccc(-c3nc4cc(C(F)(F)F)ccc4[nH]3)c2)c1`
Response: label 1

Prompt: Below 60% on Inhibition? Entry O=C1c2ccccc2-n2c1nc1ccccc1c2=O [TRYPTANTHRIN]
Response: label 0

Prompt: Below 60% on Inhibition? Entry `CC(C)(C)N1CCC(N(Cc2ccc(-c3ccc(C(F)(F)F)cc3)cc2)C(=O)Cn2c(CCc3cccc(F)c3F)cc(=O)c3ccccc32)CC1.O=C(O)C(O)C(O)C(=O)O`
Response: label 0

Prompt: Below 60% on Inhibition? Entry `COc1cccc2c(N/N=C/c3cccc([N+](=O)[O-])c3)ccnc12`
Response: label 1

###

Tested on: Plasmodium falciparum
Test: GSK_TCMDC: Inhibition of Plasmodium falciparum Dd2 in whole red blood cells, using parasite LDH activity as an index of growth. Test compounds present at 2uM
Assay type: functional
Returns one of yes or no; yes when Inhibition is >= 80%.

Prompt: Inhibition >= 80% for CN1N=C2c3ccccc3CCC2C1c1ccc(C#N)cc1 (stereo not given) ?
Response: yes

Further cases:
Prompt: Inhibition >= 80% for `CCOc1ccc2c(N/N=C/c3cccc([N+](=O)[O-])c3)cc(C)nc2c1` ?
Response: yes

Prompt: Inhibition >= 80% for `CCCn1c(O)nnc1SCC(=O)Nc1cc(Cl)ccc1Cl` ?
Response: no

Prompt: Inhibition >= 80% for CON=C1CCC(Cn2ccnc2)(c2ccc(Cl)cc2Cl)CC1 (stereo not given) ?
Response: no

###

I'd be grateful if you could share measured Inhibition for these entries.
Tested on: Plasmodium falciparum
Test: GSK_TCMDC: Inhibition of Plasmodium falciparum 3D7 in whole red blood cells, using parasite LDH activity as an index of growth. Test compounds present at 2uM
Type: functional
Numbers only, in %.

Sample answers from the record:
Prompt: Item: `O=[N+]([O-])c1ccc(N/C(=N\c2ccccc2Br)NCCOc2ccccc2)c(O)c1` Test system: Plasmodium falciparum Read-out: Inhibition Value: ?
Response: 88

Prompt: Item: `Cc1nc(N/C=C/c2ccc(O)cc2)cc(N2CCCC2)n1` Test system: Plasmodium falciparum Read-out: Inhibition Value: ?
Response: 93

Prompt: Item: `CCNc1cc(C(=O)N[C@@H](Cc2ccccc2Cl)[C@H](O)CNC2CCCCC2)cc(N2CCCCS2(=O)=O)c1.Cl` Test system: Plasmodium falciparum Read-out: Inhibition Value: ?
Response: 99

Prompt: Item: `COc1ccc2c(c1CCNCCCCNCCc1c(OC)ccc3c1CCCC3)CCCC2.CS(=O)(=O)O` Test system: Plasmodium falciparum Read-out: Inhibition Value: ?
Response: 100

Prompt: Item: `CCc1cc(NC2CCN(C)CC2)nc(Nc2cccc(OC)c2)n1` Test system: Plasmodium falciparum Read-out: Inhibition Value: ?
Response: 93

Prompt: Item: CC(=O)Nc1ccc2[nH]cc(C3CCN(CC4CCC(NC(=O)/C=C/c5ccccc5Cl)CC4)CC3)c2n1 (centres undefined) Test system: Plasmodium falciparum Read-out: Inhibition Value: ?
Response: 100

Working through the 3 molecules below one at a time, give Inhibition for each.
1. COc1ccc2nc3cc(Cl)ccc3c(NCCNCC(O)CO)c2n1.Cl (centres undefined)
2. COc1cc2nc(N3CCC(CNC(=O)c4ccc(-c5ccccc5)cc4)CC3)nc(N)c2cc1OC
3. Cc1ccc(O)c(C(=O)c2cc(C(=O)Nc3ccccc3C)c(=O)n(-c3ccccc3C)c2)c1

Response:
[100, 93, 98]

###

I'd be grateful if you could share measured Inhibition for these entries.
Tested on: Plasmodium falciparum
Assay: GSK_TCMDC: Inhibition of Plasmodium falciparum 3D7 in whole red blood cells, using parasite LDH activity as an index of growth. Test compounds present at 2uM
Assay type: functional
Give bare numbers, in %.

Sample answers from the record:
Prompt: Looking for the measured Inhibition of C=CCOC(=O)N1CCC(CNCc2ccc(-c3cccc(-c4nc5ccccc5[nH]4)c3)cc2)C1.O=C(O)C(F)(F)F (stereo not drawn) , can you help?
Response: 100

Prompt: Looking for the measured Inhibition of `COc1ccc(CNCc2cccc(-c3cccc(-c4nc5cc(F)ccc5[nH]4)c3)c2)cc1.O=C(O)C(F)(F)F` , can you help?
Response: 100

Prompt: Looking for the measured Inhibition of `CCN(CC)c1ccc(-c2nc3cc(Cl)cnc3[nH]2)cc1` , can you help?
Response: 85

Prompt: Looking for the measured Inhibition of CC1CN(Cc2cccc(F)c2)CCN1c1ccc(NC(=O)c2cccs2)cc1.O=C(O)C(F)(F)F (stereo not drawn) , can you help?
Response: 96

Prompt: Looking for the measured Inhibition of `CC(C)(C)[C@@H](Nc1ccc(C#N)c2ccccc12)C(=O)NC1(Cc2ccc(O)c(Br)c2)CCCC1` , can you help?
Response: 84

Prompt: Looking for the measured Inhibition of `NC(=S)Cc1ccc2c(c1)OCO2` , can you help?
Response: 96

Prompt: Looking for the measured Inhibition of `CC(C)c1ccc(NC(=O)c2ccc(C(=O)NC3CCN(Cc4ccccc4)CC3)cc2)cc1.O=C(O)C(F)(F)F` , can you help?
Response: 88

Prompt: Looking for the measured Inhibition of `Cc1cc(NCC(c2ccccc2)c2ccccc2)nc(NCc2ccc(C(F)(F)F)cc2)n1` , can you help?
Response: 100

Prompt: Looking for the measured Inhibition of `CN1CCN(Cc2c(O)ccc3c(=O)c(Oc4ccc(C(C)(C)C)cc4)c(C(F)(F)F)oc23)CC1` , can you help?
Response: 99

Prompt: Looking for the measured Inhibition of `Cc1cc(F)ccc1Oc1nc(Nc2ccc(N3CCOCC3)c(F)c2)nc2c1S(=O)(=O)CCC2.Cl` , can you help?
Response: 96

Working through the 3 molecules below one at a time, give Inhibition for each.
1. O=C(N[C@H]1CCCC[C@H]1C(=O)O)c1ccccc1
2. COc1ccc(CNCc2ccc(F)cc2)cc1-c1cccc(S(=O)(=O)NCCN2CCCC2)c1.O=C(O)C(F)(F)F
3. Fc1ccc2[nH]c(-c3ccc(-c4ccc(CNCCN5CCNCC5)cc4)s3)nc2c1.O=C(O)C(F)(F)F

Response:
95
100
96

Working through the 4 molecules below one at a time, give Inhibition for each.
1. COc1ccc(NC(C)C(=O)Nc2ccc(Br)cc2)cc1S(=O)(=O)N1CCCCC1 (stereo not drawn)
2. O=C(NCCCCN1CCC(c2ccc([N+](=O)[O-])cc2)CC1)c1ccc(NC(=O)c2ccc(Cl)cc2)cc1
3. O=C(Nc1ccc(Cn2ncc(N3CCCNCC3)c(Cl)c2=O)cc1)Nc1cccc(Oc2ccccc2)c1.O=C(O)C(F)(F)F
4. Oc1c(C(Nc2ccccn2)c2ccc(Cl)cc2Cl)ccc2cccnc12 (stereo not drawn)

Response:
[99, 100, 81, 88]

Prompt: Looking for the measured Inhibition of `COc1cccc(NC(=O)c2cc(C(=O)Nc3cccc(OC)c3)cc([N+](=O)[O-])c2)c1` , can you help?
Response: 99
